Origin of the recorded values: patent US20250152746A1

test system: PCSK9 gene splice site; assay type: cell-based, cynomolgus monkey
Outcome measure: Cynomolgous Primary Hepatocytes-splice site editing % 1250 ng/mL (%)
Your answer is read as %, so omit the unit and give the number.

Item under review: GA072: PCSK9 gRNA for ABE8.8 splice site editing, Human/Cyno (nucleic acid, 2'-O-methyl at 1, 2, other sugars, backbone and T or U not given here; further chemistry not fully specified, PCSK9 gRNA for ABE8.8 splice site editing, Human/Cyno) guide: GGTGGCTCACCAGCTCCAGCGTTTTAGAGCTAGAAATAGCAAGTTAAAATAAGGCTAGTCCGTTATCAACTTGAAAAAGTGGCACCGAGTCGGTGCTTTT . Reported Cynomolgous Primary Hepatocytes-splice site editing % 1250 ng/mL?
2.3

Can you look up the measured Cynomolgous Primary Hepatocytes-splice site editing % 1250 ng/mL of GA080: PCSK9 gRNA for ABE8.8 splice site editing, Human/Cyno (nucleic acid, 2'-O-methyl at 1, 2, other sugars and backbone not given here; further chemistry not fully specified, PCSK9 gRNA for ABE8.8 splice site editing, Human/Cyno) guide: CCTTTCCAGGTCATCACAGTGTTTTAGAGCTAGAAATAGCAAGTTAAAATAAGGCTAGTCCGTTATCAACTTGAAAAAGTGGCACCGAGTCGGTGCTTTT for me?
7.1

Given the molecule GA077: PCSK9 gRNA for ABE8.8 splice site editing, Human/Cyno (nucleic acid, 2'-O-methyl at 1, 2, other sugars and backbone not given here; further chemistry not fully specified, PCSK9 gRNA for ABE8.8 splice site editing, Human/Cyno) guide: UCCCAGGCCTGGAGTTTATTGTTTTAGAGCTAGAAATAGCAAGTTAAAATAAGGCTAGTCCGTTATCAACTTGAAAAAGTGGCACCGAGTCGGTGCTTTT , what is its reported Cynomolgous Primary Hepatocytes-splice site editing % 1250 ng/mL?
4.1

Could you share which Cynomolgous Primary Hepatocytes-splice site editing % 1250 ng/mL value was measured for GA079: PCSK9 gRNA for ABE8.8 splice site editing, Human/Cyno (nucleic acid, listed as RNA; modified_base 1: mod_base = OTHER; note = 2'-O-Methyl-cytidine phosphorothioate; modified_base 2: mod_base = OTHER; note = 2'-O-Methyl-uridine phosphorothioate; modified_bas, PCSK9 gRNA for ABE8.8 splice site editing, Human/Cyno) guide: CTTTCCAGGTCATCACAGTTGTTTTAGAGCTAGAAATAGCAAGTTAAAATAAGGCTAGTCCGTTATCAACTTGAAAAAGTGGCACCGAGTCGGTGCTTTT ?
0.6

Request the reported Cynomolgous Primary Hepatocytes-splice site editing % 1250 ng/mL associated with GA088: PCSK9 gRNA for ABE8.8 splice site editing, Human/Cyno (nucleic acid, 2'-O-methyl at 1, 2, other sugars and backbone not given here; further chemistry not fully specified, PCSK9 gRNA for ABE8.8 splice site editing, Human/Cyno) guide: CCCAGGCTGCAGCTCCCACTGTTTTAGAGCTAGAAATAGCAAGTTAAAATAAGGCTAGTCCGTTATCAACTTGAAAAAGTGGCACCGAGTCGGTGCTTTT
17.0

Bench note: what Cynomolgous Primary Hepatocytes-splice site editing % 1250 ng/mL did GA073: PCSK9 gRNA; protospacer GCTTACCTGTCTGTGGAAGC (SEQ ID NO: 67), splice donor of intron 4 (nucleic acid, listed as RNA; modified_base 1: mod_base = OTHER; note = 2'-O-Methyl-guanosine phosphorothioate; modified_base 2: mod_base = OTHER; note = 2'-O-Methyl-cytidine phosphorothioate; modified_b) guide: GCTTACCTGTCTGTGGAAGCGTTTTAGAGCTAGAAATAGCAAGTTAAAATAAGGCTAGTCCGTTATCAACTTGAAAAAGTGGCACCGAGTCGGTGCTTTT show?
24.7
